The reported measurements were obtained from patent US9969775B2.

molecular target: hAM2 receptor (CALCRL:RAMP3) (Homo sapiens, UniProt O60896+Q16602); construct: expressed in transfected cells; host or cells: GeneBLAzer CALCRL:RAMP3-CRE-bla Freestyle 293F; test: AM2 receptor antagonist activity measured by cAMP assay (HTRF); format: cell-based; settings: % MPE: percent of the maximal possible effect; agonist human adrenomedullin; read-out: hAM2-R Efficacy Antag (%) Ave
Sequence (Q16602 23-461): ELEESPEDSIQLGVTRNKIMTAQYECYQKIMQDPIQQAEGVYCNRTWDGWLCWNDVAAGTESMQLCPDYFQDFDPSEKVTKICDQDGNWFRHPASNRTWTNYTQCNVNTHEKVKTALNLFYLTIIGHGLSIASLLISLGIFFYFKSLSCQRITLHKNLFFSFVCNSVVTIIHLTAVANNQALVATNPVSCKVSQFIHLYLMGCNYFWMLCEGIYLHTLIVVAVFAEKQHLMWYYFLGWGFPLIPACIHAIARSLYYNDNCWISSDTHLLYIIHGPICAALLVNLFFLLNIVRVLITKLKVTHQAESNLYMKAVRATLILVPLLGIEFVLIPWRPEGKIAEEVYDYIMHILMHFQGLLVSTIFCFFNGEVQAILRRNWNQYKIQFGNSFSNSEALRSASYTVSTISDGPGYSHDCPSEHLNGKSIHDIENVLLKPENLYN
Sequence (O60896 24-148): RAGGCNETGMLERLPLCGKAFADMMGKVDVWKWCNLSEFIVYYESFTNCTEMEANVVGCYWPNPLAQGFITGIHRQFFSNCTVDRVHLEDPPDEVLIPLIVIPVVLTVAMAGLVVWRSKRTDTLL
Numbered stars: 1 amine (or outer) side, 2 acyl side, 3 side chain; on linkers, the order of the positions; unused ones are H or OH. Bridge positions count the residues as written; N and C are the ends. Square brackets hold non-standard residues; d marks the D form. Peptide text beside a SMILES is read from it. * marks the point of attachment. Phe(3-CH2NH2) = O=C([C@H](Cc1cccc(CN[*:3])c1)N[*:1])[*:2]; Phe(3-CONH2) = NC(=O)c1cccc(C[C@H](N)C(=O)O)c1; Phe(2-CONH2) = NC(=O)c1ccccc1C[C@H](N)C(=O)O; Triazol3yl(1,2,4-5-NH2) = Nc1nc(*)n[nH]1; X14 = CCN(CC)CCC[C@H](N[*:1])C(=O)[*:2]; Picolinoyl(5-F) = O=C(c1ccc(F)cn1)*; Orn(iPr) = CC(C)NCCC[C@H](N)C(=O)O; Benzoyl(4-F) = O=C(c1ccc(F)cc1)*; Oxazole2carbonyl = O=C(c1ncco1)*; 3Pal = N[C@@H](Cc1cccnc1)C(=O)O; Picolinoyl = O=C(c1ccccn1)*; ΔPro = O=C(O)[C@@H]1C=CCN1; Orn = NCCC[C@H](N)C(=O)O; Dap = NC[C@H](N)C(=O)O; X10 = O=C(c1nccs1)*
Emax for assorted compounds
A number alone suffices; assume %.

- compound: "CC(C)[C@@H]1NC(=O)[C@H](CC(=O)O)NC(=O)[C@H](CCCNC(=N)N)NC(=O)[C@@H](NC(=O)[C@H](Cc2ccccc2C(N)=O)NC(=O)[C@H](NC(=O)c2ccc(F)cc2)C(C)C)CSSC[C@@H](C(=O)N[C@@H](Cc2cccnc2)C(N)=O)NC(=O)[C@H](Cc2ccccc2)NC(=O)[C@@H]2CCCN2C(=O)CNC1=O [Compound 15] ({Benzoyl(4-F)}-[dV][Phe(2-CONH2)]CRDVGPFC[3Pal]-NH2; disulfide 3-10)"
  reported.measurement: 99

Emax lookup needed for CC(C)[C@@H]1NC(=O)[C@H](CC(=O)O)NC(=O)[C@H](CCCNC(=N)N)NC(=O)[C@@H](NC(=O)[C@H](Cc2ccc(O)cc2)NC(=O)[C@H](NC(=O)c2nccs2)C(C)C)CSSC[C@@H](C(=O)N[C@@H](Cc2cccnc2)C(N)=O)NC(=O)[C@H](Cc2ccccc2)NC(=O)[C@@H]2CCCN2C(=O)CNC1=O [Compound 33] (X10-[dV]YCRDVGPFC[3Pal]-NH2; disulfide 3-10) , thanks.
100

Emax lookup needed for CC(C)[C@@H]1NC(=O)[C@H](CC(=O)O)NC(=O)[C@H](CN)NC(=O)[C@@H](NC(=O)[C@H](Cc2ccc(O)cc2)NC(=O)[C@H](NC(=O)c2ccc(F)cc2)C(C)C)CSSC[C@@H](C(=O)N[C@@H](Cc2cccnc2)C(N)=O)NC(=O)[C@H](Cc2cccc(C(N)=O)c2)NC(=O)[C@@H]2CCCN2C(=O)CNC1=O [Compound 6] ({Benzoyl(4-F)}-[dV]YC[Dap]DVGP[Phe(3-CONH2)]C[3Pal]-NH2; disulfide 3-10) , thanks.
113

Emax lookup needed for CC(C)NCCC[C@@H]1NC(=O)[C@@H](NC(=O)[C@H](Cc2ccccc2C(N)=O)NC(=O)[C@H](NC(=O)c2ncco2)C(C)C)CSSC[C@@H](C(=O)N[C@@H](Cc2cccnc2)C(N)=O)NC(=O)[C@H](Cc2ccccc2)NC(=O)[C@@H]2CCCN2C(=O)CNC(=O)[C@H](C(C)C)NC(=O)[C@H](CC(=O)O)NC1=O [Compound 30] (Oxazole2carbonyl-[dV][Phe(2-CONH2)]C[Orn(iPr)]DVGPFC[3Pal]-NH2; disulfide 3-10) , thanks.
98

Emax lookup needed for CC(C)NCCC[C@@H]1NC(=O)[C@@H](NC(=O)[C@H](Cc2ccccc2C(N)=O)NC(=O)[C@H](NC(=O)c2ncco2)C(C)C)CSSC[C@@H](C(=O)N[C@@H](Cc2cccnc2)C(N)=O)NC(=O)[C@H](Cc2cccc(CN)c2)NC(=O)[C@@H]2C=CCN2C(=O)CNC(=O)[C@H](C(C)C)NC(=O)[C@H](CC(=O)O)NC1=O [Compound 43] (Oxazole2carbonyl-[dV][Phe(2-CONH2)]C[Orn(iPr)]DVG[ΔPro][Phe(3-CH2NH2)]C[3Pal]-NH2; disulfide 3-10) , thanks.
101

Emax lookup needed for CC(C)[C@@H]1NC(=O)[C@H](CC(=O)O)NC(=O)[C@H](CCCNc2nc(N)n[nH]2)NC(=O)[C@@H](NC(=O)[C@H](Cc2ccccc2C(N)=O)NC(=O)[C@H](NC(=O)c2ncco2)C(C)C)CSSC[C@@H](C(=O)N[C@@H](Cc2cccnc2)C(N)=O)NC(=O)[C@H](Cc2cccnc2)NC(=O)[C@@H]2CCCN2C(=O)CNC1=O [Compound 52] (Oxazole2carbonyl-[dV][Phe(2-CONH2)]C[Orn](Triazol3yl(1,2,4-5-NH2))DVGP[3Pal]C[3Pal]-NH2; disulfide 3-10) , thanks.
97

Emax lookup needed for CC(C)NCCC[C@@H]1NC(=O)[C@@H](NC(=O)[C@H](Cc2ccc(O)cc2)NC(=O)[C@H](NC(=O)c2ccc(F)cn2)C(C)C)CSSC[C@@H](C(=O)N[C@@H](Cc2cccnc2)C(N)=O)NC(=O)[C@H](Cc2ccccc2)NC(=O)[C@@H]2CCCN2C(=O)CNC(=O)[C@H](C(C)C)NC(=O)[C@H](CC(=O)O)NC1=O [Compound 14] ({Picolinoyl(5-F)}-[dV]YC[Orn(iPr)]DVGPFC[3Pal]-NH2; disulfide 3-10) , thanks.
100

Emax lookup needed for CCN(CC)CCC[C@@H]1NC(=O)[C@@H](NC(=O)[C@H](Cc2ccc(O)cc2)NC(=O)[C@H](NC(=O)c2ccccn2)C(C)C)CSSC[C@@H](C(=O)N[C@@H](Cc2cccnc2)C(N)=O)NC(=O)[C@H](Cc2ccccc2)NC(=O)[C@@H]2CCCN2C(=O)CNC(=O)[C@H](C(C)C)NC(=O)[C@H](CC(=O)O)NC1=O [Compound 24] (Picolinoyl-[dV]YC[X14]DVGPFC[3Pal]-NH2; disulfide 3-10) , thanks.
98

Emax lookup needed for CC(C)[C@@H]1NC(=O)[C@H](CC(=O)O)NC(=O)[C@H](CCCNC(=N)N)NC(=O)[C@@H](NC(=O)[C@H](Cc2ccc(O)cc2)NC(=O)[C@H](NC(=O)c2ccc(F)cc2)C(C)C)CSSC[C@@H](C(=O)N[C@@H](Cc2cccnc2)C(N)=O)NC(=O)[C@H](Cc2cccnc2)NC(=O)[C@@H]2CCCN2C(=O)CNC1=O [Compound 2] ({Benzoyl(4-F)}-[dV]YCRDVGP[3Pal]C[3Pal]-NH2; disulfide 3-10) , thanks.
100
